Below: a set of entries, each annotated with reported Kd.
- target or test system: T1, Human PDGF-BB (human, UniProt P01127 82-190)
- T1 construct: Dimer of two B chains; also called hPDGF-BB; huPDGF-BB
- T1 sequence (P01127 82-190 limits assumed): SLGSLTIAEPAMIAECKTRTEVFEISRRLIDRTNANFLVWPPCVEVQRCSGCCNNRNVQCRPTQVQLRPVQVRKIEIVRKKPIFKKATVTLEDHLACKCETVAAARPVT
- procedure details: Biacore SPR, antibody captured by anti-human Fc, PDGF-BB as analyte

CL-33855-IgG (antibody, V domains shown) VH: EVTLRESGPALVKPTQTLTLTCTFSGFSLSTYGMGVGWIRQPPGKALEWLANIWWDDDKYYNPSLKNRLTISKDTSKNQVVLTMTNMDPVDTATYYCARIETFGPKYSFDYWGQGTMVTVSS VL: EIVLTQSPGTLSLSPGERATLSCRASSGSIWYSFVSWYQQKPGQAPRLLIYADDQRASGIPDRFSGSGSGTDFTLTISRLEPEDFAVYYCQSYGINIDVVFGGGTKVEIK :: ≤ 0.05 pM

Shifting focus to the binder that follows.
Data request: What value of Kd has been reported for the following binder? CL-33682-IgG (antibody, V domains shown) VH: EVTLRESGPALVKPTQTLTLTCTFSGFSLSTYGMGVGWIRQPPGKALEWLANIWWDDDKYYNPSLKNRLTISKDTSKNQVVLTMTNMDPVDTATYYCARIESSWTSYSFDYWGQGTMVTVSS VL: EIVLTQSPGTLSLSPGERATLSCERSSGSNYDTYVSWYQQKPGQAPRLLIYADDLRASGIPDRFSGSGSGTDFTLTISRLEPEDFAVYYCQSYGINIDVVFGGGTKVEIK
Data returned: ≤ 0.24 pM

Values were extracted from patent US20170015742A1.
